# experimental.target: stearoyl-CoA desaturase (SCD) (Rattus norvegicus)
# Construct: The microsomes were quickly thawed and added to assay buffer so that a concentration of 0.4 mg/ml was achieved; from tissue
# Sequence (P07308 whole entry): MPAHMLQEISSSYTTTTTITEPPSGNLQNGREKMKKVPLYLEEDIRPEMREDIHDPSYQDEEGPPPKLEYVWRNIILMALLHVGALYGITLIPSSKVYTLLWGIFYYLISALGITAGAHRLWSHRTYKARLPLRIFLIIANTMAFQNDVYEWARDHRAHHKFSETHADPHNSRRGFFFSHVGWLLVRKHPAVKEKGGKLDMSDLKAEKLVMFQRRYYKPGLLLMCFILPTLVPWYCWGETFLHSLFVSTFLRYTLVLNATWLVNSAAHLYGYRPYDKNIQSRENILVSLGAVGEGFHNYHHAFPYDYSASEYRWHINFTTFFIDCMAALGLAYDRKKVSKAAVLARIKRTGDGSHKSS
# experiment.notes: SCD assay with rat liver microsomes ([3H]stearoyl CoA, adapted from Talamo and Bloch)
# Format: biochemical
# test.context: Table 1; rat liver microsomes 0.2 mg/ml assay final, [3H]stearoyl CoA substrate, 30 min preincubation, 45 min reaction, room temperature
result.type: pIC50
Lab note: report pIC50 as minus log10 of the concentration in molar units, number only.

Looking for the measured pIC50 of CC(=O)NCC(=O)Nc1ccc2ncn(Cc3ccc(Cl)c(Cl)c3)c(=O)c2c1 , can you help?
4.93

Looking for the measured pIC50 of O=C(Nc1ccc2ncn(Cc3ccc(Cl)c(Cl)c3)c(=O)c2c1)Oc1ccc(Cl)cc1 , can you help?
5.49

Looking for the measured pIC50 of O=C(CO)Nc1ccc2ncn(Cc3cccc(C(F)(F)F)c3)c(=O)c2c1 , can you help?
5.86

Looking for the measured pIC50 of O=C(Nc1ccc2ncn(Cc3ccc(Cl)c(Cl)c3)c(=O)c2c1)OCC1CC1 , can you help?
5.53

Looking for the measured pIC50 of O=C(COc1cccc(F)c1)Nc1ccc2ncn(Cc3ccc(Cl)c(Cl)c3)c(=O)c2c1 , can you help?
5.70

Looking for the measured pIC50 of O=C(Nc1ccc2c(=O)n(Cc3cccc(F)c3)cnc2c1)OCc1ccccc1 , can you help?
6.08

Looking for the measured pIC50 of CCOC(=O)COC(=O)Nc1ccc2c(=O)n(Cc3ccc(Cl)c(Cl)c3)cnc2c1 , can you help?
5.42

Looking for the measured pIC50 of COc1ccccc1OCC(=O)Nc1ccc2c(=O)n(Cc3ccc(Cl)c(Cl)c3)cnc2c1 , can you help?
5.84

Looking for the measured pIC50 of O=C(Nc1ccc2c(=O)n(Cc3ccc(F)c(Cl)c3)cnc2c1)OCc1cccnc1 , can you help?
6.92

Looking for the measured pIC50 of O=C(COc1ccccc1)Nc1ccc2ncn(Cc3ccc(Cl)c(Cl)c3)c(=O)c2c1 , can you help?
6.66

Looking for the measured pIC50 of O=C(Nc1ccc2c(=O)n(Cc3cccc(Cl)c3)cnc2c1)OCc1cccnc1 , can you help?
6.55

Looking for the measured pIC50 of O=C(Nc1ccc2ncn(Cc3ccc(Cl)c(Cl)c3)c(=O)c2c1)OCc1cccnc1 , can you help?
6.77

Looking for the measured pIC50 of O=C(Nc1ccc2c(=O)n(Cc3ccc(F)c(Cl)c3)cnc2c1)OCc1ccccc1 , can you help?
6.54

Looking for the measured pIC50 of O=C(COc1ccccc1[N+](=O)[O-])Nc1ccc2ncn(Cc3ccc(Cl)c(Cl)c3)c(=O)c2c1 , can you help?
4.82

Looking for the measured pIC50 of O=C(Nc1ccc2ncn(Cc3ccc(Cl)c(Cl)c3)c(=O)c2c1)OCc1ccccc1 , can you help?
6.80

Looking for the measured pIC50 of CC(=O)OCC(=O)Nc1ccc2ncn(Cc3ccc(Cl)c(Cl)c3)c(=O)c2c1 , can you help?
7.00

Looking for the measured pIC50 of O=C(COc1cccc(Cl)c1Cl)Nc1ccc2ncn(Cc3ccc(Cl)c(Cl)c3)c(=O)c2c1 , can you help?
5.42

Looking for the measured pIC50 of O=C(CCOc1ccccc1)Nc1ccc2ncn(Cc3ccc(Cl)c(Cl)c3)c(=O)c2c1 , can you help?
5.16

Looking for the measured pIC50 of COc1ccccc1OCC(=O)Nc1ccc2ncn(Cc3ccc(Cl)c(Cl)c3)c(=O)c2c1 , can you help?
6.11

Looking for the measured pIC50 of O=C(COc1ccccc1)Nc1ccc2c(=O)n(Cc3ccc(Cl)cc3)cnc2c1 , can you help?
5.80

Looking for the measured pIC50 of O=C(COc1ccccc1)Nc1ccc2ncn(Cc3ccc(Br)cc3)c(=O)c2c1 , can you help?
4.82

Looking for the measured pIC50 of O=C(CO)Nc1ccc2c(=O)n(Cc3cccc(Cl)c3)cnc2c1 , can you help?
5.57

Looking for the measured pIC50 of COC(=O)Nc1ccc2ncn(Cc3ccc(Cl)c(Cl)c3)c(=O)c2c1 , can you help?
5.33

Looking for the measured pIC50 of COCCNC(=O)Nc1ccc2ncn(Cc3ccc(Cl)c(Cl)c3)c(=O)c2c1 , can you help?
5.21

Looking for the measured pIC50 of Cc1cc(C)cc(OCC(=O)Nc2ccc3ncn(Cc4ccc(Cl)c(Cl)c4)c(=O)c3c2)c1 , can you help?
5.53

Looking for the measured pIC50 of CC(Oc1ccccc1Cl)C(=O)Nc1ccc2ncn(Cc3ccc(Cl)c(Cl)c3)c(=O)c2c1 (stereo not drawn) , can you help?
5.68

Looking for the measured pIC50 of CN(CCOC(=O)Nc1ccc2ncn(Cc3ccc(Cl)c(Cl)c3)c(=O)c2c1)Cc1ccccc1 , can you help?
4.96

Looking for the measured pIC50 of O=C(COc1ccc(F)cc1F)Nc1ccc2ncn(Cc3ccc(Cl)c(Cl)c3)c(=O)c2c1 , can you help?
5.46

Looking for the measured pIC50 of CC(=O)OCC(=O)Nc1ccc2c(=O)n(Cc3ccc(Cl)c(F)c3)cnc2c1 , can you help?
5.99

Looking for the measured pIC50 of O=C(Nc1ccc2ncn(Cc3ccc(Cl)c(Cl)c3)c(=O)c2c1)OCc1ccco1 , can you help?
6.36

Looking for the measured pIC50 of O=C(Nc1ccc2ncn(Cc3ccc(Cl)c(Cl)c3)c(=O)c2c1)OCc1ccncc1 , can you help?
6.00

Looking for the measured pIC50 of COc1ccc(Cn2cnc3ccc(NC(=O)CO)cc3c2=O)cc1 , can you help?
5.09

Looking for the measured pIC50 of O=C(Nc1ccc2ncn(Cc3ccc(Cl)c(Cl)c3)c(=O)c2c1)OCCc1ccccc1 , can you help?
5.36

Looking for the measured pIC50 of CC(=O)OCC(=O)Nc1ccc2c(=O)n(Cc3ccc(Cl)c(Cl)c3)cnc2c1 , can you help?
6.74

Looking for the measured pIC50 of Cc1ccc(OC(=O)Nc2ccc3ncn(Cc4ccc(Cl)c(Cl)c4)c(=O)c3c2)cc1 , can you help?
5.57

Looking for the measured pIC50 of CC(=O)OCC(=O)Nc1ccc2ncn(Cc3ccc(Cl)c(F)c3)c(=O)c2c1 , can you help?
5.88

====

# experimental.target: stearoyl-CoA desaturase (SCD) (Rattus norvegicus)
# Construct: The microsomes were quickly thawed and added to assay buffer so that a concentration of 0.4 mg/ml was achieved; from tissue
# experiment.notes: SCD assay with rat liver microsomes ([3H]stearoyl CoA, adapted from Talamo and Bloch)
# Type: biochemical
# test.context: Table 1; rat liver microsomes 0.2 mg/ml assay final, [3H]stearoyl CoA substrate, 30 min preincubation, 45 min reaction, room temperature
Please provide measured pIC50 for the entries that follow.
Lab note: report pIC50 as minus log10 of the concentration in molar units, number only.

Looking for the measured pIC50 of O=C(CO)Nc1ccc2c(=O)n(Cc3ccc(Cl)c(Cl)c3)cnc2c1 [LXXXII] , can you help?
6.46

Looking for the measured pIC50 of COCCOC(=O)Nc1ccc2c(=O)n(Cc3ccc(Cl)c(Cl)c3)cnc2c1 [LXVII] , can you help?
6.06

Looking for the measured pIC50 of CC(=O)OCC(=O)Nc1ccc2c(=O)n(Cc3ccc(F)c(Cl)c3)cnc2c1 [LXXV] , can you help?
5.96

Looking for the measured pIC50 of CC(=O)OCC(=O)Nc1ccc2ncn(Cc3ccc(C(F)(F)F)cc3)c(=O)c2c1 [XCVI] , can you help?
5.56

Looking for the measured pIC50 of O=C(Nc1ccc2ncn(Cc3ccc4sccc4c3)c(=O)c2c1)OCc1ccccc1 [XLV] , can you help?
6.07

Looking for the measured pIC50 of Cc1ccc(OCC(=O)Nc2ccc3ncn(Cc4ccc(Cl)c(Cl)c4)c(=O)c3c2)cc1 [XXII] , can you help?
5.24

Looking for the measured pIC50 of O=C(COc1ccc2ccccc2c1)Nc1ccc2ncn(Cc3ccc(Cl)c(Cl)c3)c(=O)c2c1 [XXXII] , can you help?
5.55

Looking for the measured pIC50 of O=C(CCC(=O)c1ccccc1)Nc1ccc2ncn(Cc3ccc(Cl)c(Cl)c3)c(=O)c2c1 [XLII] , can you help?
5.66

Looking for the measured pIC50 of O=C(COc1ccccc1)Nc1ccc2ncn(Cc3ccc4ccsc4c3)c(=O)c2c1 [XLI] , can you help?
5.10

Looking for the measured pIC50 of O=C(CSc1ccncc1)Nc1ccc2ncn(Cc3ccc(Cl)c(Cl)c3)c(=O)c2c1 [LIV] , can you help?
5.59

Looking for the measured pIC50 of O=C(CSc1ccncc1)Nc1ccc2ncn(Cc3ccc(Cl)cc3)c(=O)c2c1 [XXXVII] , can you help?
5.14

Looking for the measured pIC50 of CCCCCNC(=O)Nc1ccc2ncn(Cc3ccc(Cl)c(Cl)c3)c(=O)c2c1 [IV] , can you help?
5.44

Looking for the measured pIC50 of O=C(Nc1ccc2c(=O)n(Cc3ccc(Cl)c(Cl)c3)cnc2c1)OCc1ccccc1 [LII] , can you help?
7.30

Looking for the measured pIC50 of O=C(Nc1ccc2ncn(Cc3ccc(Cl)cc3)c(=O)c2c1)c1ccc(Cn2ccnc2)o1 [LVII] , can you help?
4.92

Looking for the measured pIC50 of O=C(Nc1ccc2ncn(Cc3ccc(Cl)c(Cl)c3)c(=O)c2c1)OCc1ccccn1 [LXXXIX] , can you help?
6.11

Looking for the measured pIC50 of CC(=O)OCC(=O)Nc1ccc2c(=O)n(Cc3ccc(F)c(F)c3)cnc2c1 [CII] , can you help?
5.12

Looking for the measured pIC50 of O=C(CCc1ccccc1)Nc1ccc2ncn(Cc3ccc(Cl)c(Cl)c3)c(=O)c2c1 [II] , can you help?
5.62

Looking for the measured pIC50 of O=C(CSc1ccc(Cl)cc1)Nc1ccc2ncn(Cc3ccc(Cl)c(Cl)c3)c(=O)c2c1 [LVI] , can you help?
5.55

Looking for the measured pIC50 of O=C(COc1cccnc1)Nc1ccc2ncn(Cc3ccc(Cl)c(Cl)c3)c(=O)c2c1 [XXXVI] , can you help?
5.51

Looking for the measured pIC50 of O=C(CO)Nc1ccc2ncn(Cc3ccc(C(F)(F)F)cc3)c(=O)c2c1 [XCVII] , can you help?
5.50

Looking for the measured pIC50 of COc1ccc(OCC(=O)Nc2ccc3ncn(Cc4ccc(Cl)c(Cl)c4)c(=O)c3c2)cc1 [XVII] , can you help?
5.53

Looking for the measured pIC50 of O=C(CO)Nc1ccc2ncn(Cc3ccc(Cl)c(Cl)c3)c(=O)c2c1 [LXII] , can you help?
6.64

Looking for the measured pIC50 of O=C(COc1ccccc1Cl)Nc1ccc2ncn(Cc3ccc(Cl)c(Cl)c3)c(=O)c2c1 [XXIX] , can you help?
5.70

Looking for the measured pIC50 of O=C(Nc1ccc2c(=O)n(Cc3ccc(Cl)c(F)c3)cnc2c1)OCc1ccccc1 [LXXXIII] , can you help?
6.68

Looking for the measured pIC50 of O=C(Nc1ccc2ncn(Cc3ccc(F)c(Cl)c3)c(=O)c2c1)OCc1ccccc1 [XLVI] , can you help?
6.35

Looking for the measured pIC50 of O=C(CSCc1ccccc1)Nc1ccc2ncn(Cc3ccc(Cl)c(Cl)c3)c(=O)c2c1 [LX] , can you help?
5.18

Looking for the measured pIC50 of COCCOCCOC(=O)Nc1ccc2ncn(Cc3ccc(Cl)c(Cl)c3)c(=O)c2c1 [XCII] , can you help?
4.93

Looking for the measured pIC50 of O=C(Nc1ccc2ncn(Cc3ccc(Cl)c(Cl)c3)c(=O)c2c1)Oc1ccc(F)cc1 [XII] , can you help?
4.89

Looking for the measured pIC50 of O=C(COc1ccc(F)cc1)Nc1ccc2ncn(Cc3ccc(Cl)c(Cl)c3)c(=O)c2c1 [XVIII] , can you help?
5.68

Looking for the measured pIC50 of O=C(CO)Nc1ccc2c(=O)n(Cc3ccc(Cl)cc3)cnc2c1 [LXXXI] , can you help?
5.51

Looking for the measured pIC50 of O=C(CO)Nc1ccc2ncn(Cc3ccc(Cl)c(F)c3)c(=O)c2c1 [XCIX] , can you help?
5.94

Looking for the measured pIC50 of CN(C)CC(=O)OCC(=O)Nc1ccc2c(=O)n(Cc3ccc(Cl)c(Cl)c3)cnc2c1 [XC] , can you help?
6.51

Looking for the measured pIC50 of CC(=O)OCC(=O)Nc1ccc2c(=O)n(Cc3cccc(F)c3)cnc2c1 [LXXII] , can you help?
6.54

Looking for the measured pIC50 of CC(=O)OCC(=O)Nc1ccc2ncn(Cc3cccc(C(F)(F)F)c3)c(=O)c2c1 [XCIV] , can you help?
5.77

Looking for the measured pIC50 of O=C(CO)Nc1ccc2c(=O)n(Cc3ccc(F)c(F)c3)cnc2c1 [CIII] , can you help?
5.36

Looking for the measured pIC50 of CC(=O)OCC(=O)Nc1ccc2c(=O)n(Cc3ccc(Cl)cc3)cnc2c1 [LXVI] , can you help?
4.79

Looking for the measured pIC50 of COc1ccc(Cn2cnc3ccc(NC(=O)COC(C)=O)cc3c2=O)cc1 [C] , can you help?
5.46

Looking for the measured pIC50 of Cc1cccc(C)c1OCC(=O)Nc1ccc2ncn(Cc3ccc(Cl)c(Cl)c3)c(=O)c2c1 [XXI] , can you help?
5.46
